System: OVCAR-4 ovarian
Test: NCI-60 one-dose screen, 48 h (100 = growth as untreated, 0 = no growth, -100 = all killed)
Conditions: 10 µM unless noted
This is part of a sample that, as a whole, favours compounds with a hit. Of some 83,000 tested, about 20% had one in any assay.
Please note: yes (1) applies when growth is 70% or greater, and no (0) applies otherwise.

hey, is growth for this one >= 70%? `CCCCCCCCCCCC(=O)OCCNC(=O)C[n+]1ccccc1`
yes (1)

Say whether `COc1cc2c(/C=C3/C(=O)Nc4ccc(O)cc43)c(Cl)n(Cc3cc(OC)c(OC)c(OC)c3)c2cc1C` shows growth of 70% or more.
no (0)

Record CC(Cc1cccc(C(F)(F)F)c1)NCCOC(=O)c1ccccc1 (stereo not drawn) ; criterion: growth no lower than 70%. Met?
yes (1)

API: above_or_equal(metric=growth, cutoff=70%) for item `O=C(N/N=C1\SCC(=O)N1c1ccccc1)c1cc(-c2cc3ccccc3o2)nn1-c1ccccc1`
yes (1)

hey, is growth for this one >= 70%? `COc1ccccc1S(=O)(=O)Nc1ccc2c3c(cc(-c4cnn(C5CC5)c4)nc13)C(=O)N2C`
no (0)

Has `Cc1ccc[n+](CC(=O)c2cccc3ccccc23)c1` a recorded growth greater than or equal to 70%?
yes (1)

Exam item: decide whether the reported growth for `CCCC(=O)Oc1ccc(/C(=C(\C)c2ccc(OC)cc2)c2ccc(OCCN3CCCCC3)cc2)cc1` is at least 70%.
yes (1)

Please indicate if the recorded growth for `C=C1C(=O)O[C@H]2[C@H]1CC/C(COC(=O)c1ccc(Cl)nc1)=C\CC[C@@]1(C)O[C@@H]21` meets or exceeds 70%.
no (0)

Check this compound for growth at or above 70%: O=C(c1cc(-c2ccc(Cl)cc2)nc2ccccc12)N1N=C(c2ccccc2)CC1c1cc(-c2ccccc2)nn1-c1ccccc1 (stereo not drawn)
no (0)

Test whether the compound `O=S(=O)(CCN1CCOCC1)Nc1cncc(-c2ccc3ncnc(Nc4ccc(F)c(Cl)c4)c3c2)c1` records growth of 70% or higher.
yes (1)

Could you verify whether the entry `O=[N+]([O-])c1ccc(NS(=O)(=O)c2ccccc2)c2ccccc12` shows growth of no less than 70%?
no (0)

Identify whether the reported growth of the following compound is 70% or greater: `Cc1cccc(CC(=O)c2ccccc2)n1`
yes (1)

# bool: growth of `O=C(N/N=C/c1ccccc1O)c1ccccc1O` >= 70%
no (0)

Exam item: decide whether the reported growth for `COC(=O)c1oc2c(C(C)=O)c(OCCN3CCCCC3)ccc2c1C` is at least 70%.
yes (1)

Can `CCNc1cc(S(=O)(=O)O)ccc1C` be said to have growth at or above 70%?
yes (1)

// inclusive: growth at least 70%? input: `C[C@H]1C=C(C[C@@H](O)CC#CC#CCCCCC[C@@H](O)[C@H]2CCC(=O)O2)C(=O)O1`
yes (1)

Kindly determine if growth recorded for CC1CCC(C(C)C)C(NN)C1 (stereo not drawn) is above or exactly 70%.
yes (1)

Could you verify whether the entry `Cc1nccc2c3ccc(OCc4cn(-c5ccc(Br)cc5)nn4)cc3n(CCCc3ccccc3)c12` shows growth of no less than 70%?
no (0)

Does the reported growth for `O=C(Nc1ccccc1F)Nc1ccccc1Cl` fall at or above the 70% mark?
yes (1)

Is growth at least 70%? Consider `COc1ccc(-c2coc3c(CO)c(O)ccc3c2=O)cc1`
yes (1)

State whether the measured growth reaches 70%, counting equality as reaching it, for `COc1cc2nc(C(=O)N3CCCCC3)cc(Nc3ccccc3)c2cc1OC`
yes (1)

For this compound, is measured growth 70% or higher? `c1coc(CSc2ncnc3nc[nH]c23)c1`
yes (1)

# bool: growth of `CN(C)CCNc1nc2ccccc2c2c(=O)c3ccccc3sc12` >= 70%
no (0)

Decide: is the reported value of growth for `Cc1cc2nc(-c3c(N)ncc(C#N)c3-c3ccc(Cl)cc3)[nH]c2cc1C` equal to or greater than 70%?
no (0)

hey, is growth for this one >= 70%? `O=C(Nc1ccc(Cl)c(Cl)c1)Nc1ccc(Cl)c([N+](=O)[O-])c1`
no (0)

// inclusive: growth at least 70%? input: `COc1ccc(-n2c(-c3ccc(NC(=O)CCCl)cc3)nnc2-c2cc(OC)c(OC)c(OC)c2)cc1`
no (0)

Hi team, for `COc1ccc(-c2nnc(SCC(=O)Nc3ccc(C(=O)/C=C/c4ccc(OC)c(OC)c4)cc3)o2)cc1` , is the recorded growth at or above 70%?
yes (1)

Does the reported growth for `c1nc(SC2=NCCN2)c2[nH]cnc2n1` fall at or above the 70% mark?
no (0)

Please indicate if the recorded growth for `Clc1ccc(OCc2nc(-c3ccccc3)n[nH]2)c(Cl)c1` meets or exceeds 70%.
yes (1)

Is reported growth greater than or equal to 70% here: `CCN(CC)CCNC(=O)c1c(C)[nH]c(/C=C2\C(=O)Nc3cc(NC(=O)NC(=O)c4ccc(OC)cc4F)ccc32)c1C`
yes (1)

growth >= 70% for `Nc1nc(Cl)cc(NCCCCNc2cc(Cl)nc(N)n2)n1` ?
yes (1)

Answer whether growth of `O=C(NC(=S)Nc1ccc(Cl)cc1)c1ccccc1` is greater than or equal to 70%.
yes (1)

hey, is growth for this one >= 70%? `CCOc1ccc(NC(=O)Nc2cc(C(C)C)ccc2C)cc1`
no (0)

Assess whether reported growth for `COc1cccc(-c2nc3sccn3c2-c2ccnc(NCCNC(=O)Nc3cccc(C(F)(F)F)c3)n2)c1` sits at 70% or higher.
yes (1)

Reported growth at or above 70%? O=C1OC(N(Cc2ccc(Cl)cc2)c2ccccc2)c2ccccc21 (stereo not drawn)
yes (1)

Could you verify whether the entry `CN(C)CCCOc1c(Br)cc(/C=C/C(=O)N(C)CCc2cc(Br)c(OCCCN(C)C)c(Br)c2)cc1Br` shows growth of no less than 70%?
yes (1)

Check if growth >= 70% (inclusive). Item: `COc1cc(NS(C)(=O)=O)ccc1Cc1c2ccccc2nc2ccccc12`
no (0)

====

System: CCRF-CEM leukemia
Test: NCI-60 one-dose screen, 48 h (100 = growth as untreated, 0 = no growth, -100 = all killed)
Conditions: 10 µM unless noted
This is part of a sample that, as a whole, favours compounds with a hit. Of some 83,000 tested, about 20% had one in any assay.
Please note: growth exactly at 70% is NO. Only values below 70% get YES.

Below 70% on growth? Entry `FC(F)(F)c1cccc([Si](F)(c2cccc(C(F)(F)F)c2)c2cccc(C(F)(F)F)c2)c1`
YES

State whether 70% exceeds growth recorded for `O=C1c2ccccc2OC=C(c2ccccc2)N1CCCCN1CCCCC1` .
YES

Hi there! Is growth for `COc1ccc(-c2cnc(-c3ccc(F)cc3)[nH]2)cc1` below 70%, do you know?
YES

Lab note: growth threshold 70%. Does this compound come in strictly under it? `CCCc1nn2c(CCC(=O)c3nc4ccc([N+](=O)[O-])cc4[nH]3)nnc2s1`
NO

Please state whether growth is below 70% for `OCc1cnccc1NC12CC3CC(CC(C3)C1)C2`
NO

Problem: For the compound CC(CCC(=O)O)[C@H]1CCC2C3C(=O)C[C@@H]4CC(=O)CC[C@]4(C)C3CC(=O)[C@@]21C (some centres undefined) , is growth under 70%?
NO

# TODO verify growth < 70% strictly for this compound: CC(=O)N1N=C(CCC(=O)c2nc3ccc([N+](=O)[O-])cc3[nH]2)OC1c1ccc(O)cc1 (centres undefined)
NO

Determine if `Cc1cn(-c2cc(C(=O)Nc3cccc(-n4ccc5c(NC(=O)c6ccccc6)nccc54)c3)cc(C(F)(F)F)c2)cn1` shows growth strictly lower than 70%.
YES

Check if growth falls below 70% for `O=C(Nc1ccccc1Cl)c1c[nH]c(=O)c(-c2ccc(N3CCCOC4(CC4)C3)cc2)c1` .
YES

====

Test system: PC-3 prostate
Experiment: NCI-60 one-dose screen, 48 h (100 = growth as untreated, 0 = no growth, -100 = all killed)
Conditions: 10 µM unless noted
Method: Growth inhibition of the PC-3 human tumor cell line is measured as a screen for anti-cancer activity. Cells are grown in 96 well plates and exposed to the test compound for 48 hours. Compounds are tested at a single concentration, which is 10^-5 M for most compounds. The reported endpoint is percent growth (GI% or GIPRCNT), where numbers from 0 - 100% represent growth inhibition, and numbers from -100% - 0 represent cell death. For example, a value of 40 represents 60% growth inhibition. […]
This is part of a sample that, as a whole, favours compounds with a hit. Of some 83,000 tested, about 20% had one in any assay.
experimental.endpoint: growth (%)
Answer format: numeric, % implied, no suffix.

Any idea what growth was measured for `C=CCn1c(SCC(=O)Nc2ccc(/C(C)=N\O)cc2)nnc1-c1cc(-c2ccc(OC)cc2)nc2ccccc12` ?
29.9

What does the data say about its growth? Entry: CCC(N)(C(=O)O)c1ccc(F)cc1 (stereo not given)
81.4

Sample `CC(=O)n1cc(/C=C2\N=C(c3ccc(Cl)cc3)N(c3ccc(S(=O)(=O)Nc4nccs4)cc3)C2=O)c2ccccc21` — what was its growth?
72.6

Name the reported growth value associated with the molecule `COc1ccc(Cl)cc1NC(=O)c1cc2c(n1C)-c1nc(NC(=O)C(C)C)sc1CC2`
60.6

May I ask what growth has been recorded for `CC(C)CNCC(=O)Nc1ccc(Cc2ccc(NC(=O)CNCC(C)C)cc2)cc1` ?
25.8

// query growth value for entry CCC(C)Nc1ccc(N)cc1 (stereo not given)
6.03

I would be grateful if you could share the reported growth for `O=C(O)c1cc2ccccc2cc1Nc1ccccc1` .
95.7

Need growth of `Cc1ccc2[nH]c3nc4cccnc4c(C)c3c2c1` , thanks.
92.7

Which measured growth value corresponds to `CCNC(=O)Oc1ccc(/C(=C(/CC)Cc2ccccc2)c2ccc(OCCN3CCOCC3)cc2)cc1` ?
20.2

# query: growth of entry `COc1cc(/C=C/C(=O)c2c(C)[n+]([O-])c3ccccc3[n+]2[O-])ccc1O`
90.6

Reported growth for CC(=O)N1N=C(CCC(=O)c2nc3ccc([N+](=O)[O-])cc3[nH]2)OC1c1ccc(O)cc1 (stereo not given) : what is it?
101

Quick check: growth of `COc1cc(NS(=O)(=O)c2ccc(N)cc2)ncn1` ?
99.8

What measured growth goes with `COc1cc(/C=C\c2cc(/C=C\c3ccc(O)c(OC)c3)n(C(=O)CNc3ccccc3OC)n2)ccc1O` ?
64.2

Reported growth for `Cc1cc(-c2ccccc2)nc2ccccc12` : what is it?
99.8

# growth lookup, item `COc1cc(NC(=O)c2cc(OC)c3ccn(C)c3c2)cc2c1C[C@]1(C)CC[C@@H](O)C(C)(C)[C@H]1O2`
41.7

Name the recorded growth for CCOC(=O)C1=C(N)Oc2cc(OC)ccc2C1c1ccc(F)c(F)c1 (stereo not given) .
26.8

Record request: growth value, item `COc1ccc2c(c1)C(=O)/C(=C/c1cccc(OCC(=O)c3ccccc3)c1)O2`
-43.4

Could you tell me which growth is on file for `O=C(Nc1ccc(-n2ccc3c(NC(=O)c4ccccc4)ncnc32)cc1)Nc1ccc(Cl)c(Cl)c1` ?
-52.3

Param item = `Cc1cn(-c2cc(C(=O)Nc3cccc(-n4ccc5c(NC(=O)c6ccccc6)nccc54)c3)cc(C(F)(F)F)c2)cn1` ; retrieve measured growth.
18.5

What growth value was documented for this molecule, `O=c1[nH]ccc2nc(N3CCC(O)CC3)nc(Nc3cccc(C(F)(F)F)c3)c12` ?
30.6
